Source of measurements: patent US9937265B2

# measurement-notes: Visual observation of gelation of peptide and peptide:GAG samples (systematic mixing study)
# Assay type: physicochemical
# particulars: peptide alone

substance	unit-tag	c*gel
CH3CO-S-S-R-F-O-W-O-F-E-S-S-NH2 (SSRFXWXFESS; HELM PEPTIDE1{[ac].S.S.R.F.[Orn].W.[Orn].F.E.S.S.[am]}$$$$V2.0; SMILES CC(=O)N[C@@H](CO)C(=O)N[C@@H](CO)C(=O)N[C@@H](CCCNC(=N)N)C(=O)N[C@@H](Cc1ccccc1)C(=O)N[C@@H](CCCN)C(=O)N[C@@H](Cc1c[nH]c2ccccc12)C(=O)N[C@@H](CCCN)C(=O)N[C@@H](Cc1ccccc1)C(=O)N[C@@H](CCC(=O)O)C(=O)N[C@@H](CO)C(=O)N[C@@H](CO)C(N)=O) [Peptide P11-12]	µM	2300
CH3CO-Q-Q-R-F-E-W-E-F-E-Q-Q-NH2 (Ac-QQRFEWEFEQQ-NH2) [Peptide P11-4]	µM	2000
CH3CO-S-S-R-F-E-W-E-F-E-S-S-NH2 (Ac-SSRFEWEFESS-NH2) [Peptide P11-9]	µM	4500

###

# measurement-notes: Visual observation of gelation of peptide and peptide:GAG samples (systematic mixing study)
# Format: physicochemical
# particulars: 20 mg/ml peptide

substance	Time to gel 20 mg/ml
CH3CO-S-S-R-F-E-W-E-F-E-S-S-NH2 (Ac-SSRFEWEFESS-NH2) [Peptide P11-9]	minutes
CH3CO-Q-Q-R-F-O-W-O-F-E-Q-Q-NH2 (QQRFXWXFEQQ; HELM PEPTIDE1{[ac].Q.Q.R.F.[Orn].W.[Orn].F.E.Q.Q.[am]}$$$$V2.0; SMILES CC(=O)N[C@@H](CCC(N)=O)C(=O)N[C@@H](CCC(N)=O)C(=O)N[C@@H](CCCNC(=N)N)C(=O)N[C@@H](Cc1ccccc1)C(=O)N[C@@H](CCCN)C(=O)N[C@@H](Cc1c[nH]c2ccccc12)C(=O)N[C@@H](CCCN)C(=O)N[C@@H](Cc1ccccc1)C(=O)N[C@@H](CCC(=O)O)C(=O)N[C@@H](CCC(N)=O)C(=O)N[C@@H](CCC(N)=O)C(N)=O) [Peptide P11-8]	days
CH3CO-S-S-R-F-O-W-O-F-E-S-S-NH2 (SSRFXWXFESS; HELM PEPTIDE1{[ac].S.S.R.F.[Orn].W.[Orn].F.E.S.S.[am]}$$$$V2.0; SMILES CC(=O)N[C@@H](CO)C(=O)N[C@@H](CO)C(=O)N[C@@H](CCCNC(=N)N)C(=O)N[C@@H](Cc1ccccc1)C(=O)N[C@@H](CCCN)C(=O)N[C@@H](Cc1c[nH]c2ccccc12)C(=O)N[C@@H](CCCN)C(=O)N[C@@H](Cc1ccccc1)C(=O)N[C@@H](CCC(=O)O)C(=O)N[C@@H](CO)C(=O)N[C@@H](CO)C(N)=O) [Peptide P11-12]	minutes
CH3CO-Q-Q-O-F-O-W-O-F-O-Q-Q-NH2 (QQXFXWXFXQQ; HELM PEPTIDE1{[ac].Q.Q.[Orn].F.[Orn].W.[Orn].F.[Orn].Q.Q.[am]}$$$$V2.0; SMILES CC(=O)N[C@@H](CCC(N)=O)C(=O)N[C@@H](CCC(N)=O)C(=O)N[C@@H](CCCN)C(=O)N[C@@H](Cc1ccccc1)C(=O)N[C@@H](CCCN)C(=O)N[C@@H](Cc1c[nH]c2ccccc12)C(=O)N[C@@H](CCCN)C(=O)N[C@@H](Cc1ccccc1)C(=O)N[C@@H](CCCN)C(=O)N[C@@H](CCC(N)=O)C(=O)N[C@@H](CCC(N)=O)C(N)=O) [Peptide P11-14]	never
